- PROTOCOL DESCRIPTION: Microsomal metabolic stability, human liver microsomes
- Type: in vitro ADME
- ASSAY CONTEXT: pooled human liver microsomes, pH 7.4
ASSAY READOUT: remaining at 0.5 h, 0.1 μM
Answer as a quantity: numeral, then unit.

Recorded remaining at 0.5 h, 0.1 μM for Cl.Clc1ccc2c(nc(N3CCNCC3)n2Cc2ccccc2)c1Cl [Compound 42a] , please?
76.3%

Recorded remaining at 0.5 h, 0.1 μM for N#CCN1CCN(c2nc3cc(Cl)ccc3n2Cc2ccccc2)CC1 , please?
8.6%

Recorded remaining at 0.5 h, 0.1 μM for Cl.Clc1ccc2c(c1)nc(N1CCNCC1)n2Cc1ccccc1 , please?
74.4%
